Recorded values, source ChEMBL document CHEMBL3098001.

Record form. Attribute: Vd/F. Fill in for each entry.
Test: Apparent volume of distribution during terminal phase in dog at 1 mg/kg, po
Assay type: ADME, organism-based, Canis lupus familiaris
Set-up: dose 1 mg/kg, route oral
Details: in vivo, read-out: Vz/F
Write the number in L/kg without appending the unit.

Exercise: Need Vd/F of CCCSc1nc(N[C@@H]2C[C@H]2c2ccc(F)c(F)c2)c2nnn([C@@H]3C[C@H](OCCO)[C@@H](O)[C@H]3O)c2n1 [TICAGRELOR] , thanks.
Solution: 5.76

Exercise: Dear colleague, I am looking for the recorded Vd/F of the following molecule: "CCCSc1nc(N[C@@H]2C[C@H]2c2ccc(F)c(F)c2)c2nnn([C@H]3[C@H](O)[C@H](O)[C@@H](O)[C@H]3F)c2n1"
Solution: 6.26

Exercise: Please report the recorded Vd/F for "CCCSc1nc(N[C@@H]2C[C@H]2c2ccc(F)c(F)c2)c2nnn([C@H]3[C@H](O)[C@H](O)[C@@H](OCCO)[C@H]3F)c2n1" .
Solution: 15.4

Exercise: Entry "CCCSc1nc(N[C@@H]2C[C@H]2c2ccc(F)c(F)c2)c2nnn([C@@H]3C[C@H](F)[C@@H](O)[C@H]3O)c2n1" has what Vd/F?
Solution: 88.4

---

Experiment: Apparent oral clearance in dog at 1 mg/kg
Type: ADME, organism-based, Canis lupus familiaris
Set-up: dose 1 mg/kg, route oral
Settings: in vivo
Could you please report measured CL/F for the items listed next?
Field: numeric (mL/min/kg). Do not append units.

Exercise: So what does the record say about CL/F for "CCCSc1nc(N[C@@H]2C[C@H]2c2ccc(F)c(F)c2)c2nnn([C@@H]3C[C@H](F)[C@@H](O)[C@H]3O)c2n1" ?
Solution: 865

Exercise: Param item = "CCCSc1nc(N[C@@H]2C[C@H]2c2ccc(F)c(F)c2)c2nnn([C@@H]3C[C@H](OCCO)[C@@H](O)[C@H]3O)c2n1" ; retrieve measured CL/F.
Solution: 32.8

Exercise: Entry "CCCSc1nc(N[C@@H]2C[C@H]2c2ccc(F)c(F)c2)c2nnn([C@H]3[C@H](O)[C@H](O)[C@@H](OCCO)[C@H]3F)c2n1" has what CL/F?
Solution: 72.3

Exercise: Any idea what its CL/F is? The molecule is "CCCSc1nc(N[C@@H]2C[C@H]2c2ccc(F)c(F)c2)c2nnn([C@H]3[C@H](O)[C@H](O)[C@@H](O)[C@H]3F)c2n1"
Solution: 36.7

---

Assay: Cmax in dog at 1 mg/kg, po
Type: ADME, organism-based, Canis lupus familiaris
Design: dose 1 mg/kg, route oral
Details: in vivo
READOUT KIND: Cmax (ng/mL)
The answer is to be given in ng/mL; state only the numeric part.

Exercise: Sample "CCCSc1nc(N[C@@H]2C[C@H]2c2ccc(F)c(F)c2)c2nnn([C@H]3[C@H](O)[C@H](O)[C@@H](OCCO)[C@H]3F)c2n1" — what was its Cmax?
Solution: 55.6

Exercise: Item under review: "CCCSc1nc(N[C@@H]2C[C@H]2c2ccc(F)c(F)c2)c2nnn([C@@H]3C[C@H](F)[C@@H](O)[C@H]3O)c2n1" . Reported Cmax?
Solution: 8.29

Exercise: I would be grateful if you could share the reported Cmax for "CCCSc1nc(N[C@@H]2C[C@H]2c2ccc(F)c(F)c2)c2nnn([C@H]3[C@H](O)[C@H](O)[C@@H](O)[C@H]3F)c2n1" .
Solution: 110

Exercise: Bench note: what Cmax did "CCCSc1nc(N[C@@H]2C[C@H]2c2ccc(F)c(F)c2)c2nnn([C@@H]3C[C@H](OCCO)[C@@H](O)[C@H]3O)c2n1" show?
Solution: 125

---

Experiment: Apparent oral clearance in rat at 10 mg/kg
Format: ADME, organism-based
Set-up: dose 10 mg/kg, route oral
Conditions: in vivo
Would you kindly list log10(CL/F) for each of these compounds?
Hi team, quick reminder: these entries are log10 of CL/F (mL/min/kg).

Exercise: Please look up its log10(CL/F): "CCCSc1nc(N[C@@H]2C[C@H]2c2ccc(F)c(F)c2)c2nnn([C@H]3[C@H](O)[C@H](O)[C@@H](O)[C@H]3F)c2n1"
Solution: 2.14

Exercise: Look up log10(CL/F) for this compound: CCCSc1nc(N[C@@H]2C[C@H]2c2ccc(F)c(F)c2)c2nnn(C3[C@H](O)[C@H](O)[C@@H](O)[C@H]3O)c2n1 (stereo partly specified)
Solution: 3.34

Exercise: Bench note: what log10(CL/F) did CCCSc1nc(N[C@@H]2C[C@H]2c2ccc(F)c(F)c2)c2nnn([C@@H]3C[C@H](OCCO)[C@@H](O)[C@H]3O)c2n1 [TICAGRELOR] show?
Solution: 2.12

Exercise: Fill blank: measured log10(CL/F) of the compound "CCCSc1nc(N[C@@H]2C[C@H]2c2ccc(F)c(F)c2)c2nnn([C@@H]3C[C@H](F)[C@@H](O)[C@H]3O)c2n1" is ____.
Solution: 2.14

Exercise: Reported log10(CL/F) for "CCCSc1nc(N[C@@H]2C[C@H]2c2ccc(F)c(F)c2)c2nnn([C@H]3[C@H](O)[C@H](O)[C@@H](OCCO)[C@H]3F)c2n1" : what is it?
Solution: 2.54

Exercise: Query: log10(CL/F); subject: "CCCSc1nc(N[C@@H]2C[C@H]2c2ccc(Cl)s2)c2nnn([C@@H]3C[C@H](OCCO)[C@@H](O)[C@H]3O)c2n1"
Solution: 2.85

---

Test: AUC in rat at 10 mg/kg, po
Format: ADME, organism-based
Design: dose 10 mg/kg, route oral
Conditions: plasma
READOUT KIND: log10 AUC (log10 of the value in ng·h/mL)
Scale: log10; quantity: AUC; unit before log: ng·h/mL

Exercise: Form field: reported log10 AUC of "CCCSc1nc(N[C@@H]2C[C@H]2c2ccc(F)c(F)c2)c2nnn([C@H]3[C@H](O)[C@H](O)[C@@H](O)[C@H]3F)c2n1"
Solution: 3.08

Exercise: I'd like to know its log10 AUC. The compound in question is CCCSc1nc(N[C@@H]2C[C@H]2c2ccc(F)c(F)c2)c2nnn([C@@H]3C[C@H](OCCO)[C@@H](O)[C@H]3O)c2n1 [TICAGRELOR]
Solution: 3.15

Exercise: I would be grateful if you could share the reported log10 AUC for "CCCSc1nc(N[C@@H]2C[C@H]2c2ccc(Cl)s2)c2nnn([C@@H]3C[C@H](OCCO)[C@@H](O)[C@H]3O)c2n1" .
Solution: 1.81

Exercise: Can you share its log10 AUC? I mean this compound: "CCCSc1nc(N[C@@H]2C[C@H]2c2ccc(F)c(F)c2)c2nnn([C@H]3[C@H](O)[C@H](O)[C@@H](OCCO)[C@H]3F)c2n1"
Solution: 2.71

Exercise: Sample CCCSc1nc(N[C@@H]2C[C@H]2c2ccc(F)c(F)c2)c2nnn([C@@H]3C[C@H](OCC(O)CO)[C@@H](O)[C@H]3O)c2n1 (mixture of isomers) — what was its log10 AUC?
Solution: 1.14

Exercise: For the compound shown here, "CCCSc1nc(N[C@@H]2C[C@H]2c2ccc(F)c(F)c2)c2nnn([C@@H]3C[C@H](F)[C@@H](O)[C@H]3O)c2n1" , give the reported log10 AUC.
Solution: 3.10

Exercise: Recorded log10 AUC of CCCSc1nc(N[C@@H]2C[C@H]2c2ccc(F)c(F)c2)c2nnn(C3[C@H](O)[C@H](O)[C@@H](O)[C@H]3O)c2n1 (some centres not stated) , please.
Solution: 2.16

---

For each of the molecules below, state its Vd/F.
Assay: Apparent volume of distribution during terminal phase in rat at 10 mg/kg, po
Type: ADME, organism-based
Parameters: dose 10 mg/kg, route oral
Conditions: in vivo, read-out: Vz/F
Write the figure, then the unit, nothing else.

Exercise: Endpoint output: Vd/F of "CCCSc1nc(N[C@@H]2C[C@H]2c2ccc(F)c(F)c2)c2nnn([C@H]3[C@H](O)[C@H](O)[C@@H](OCCO)[C@H]3F)c2n1" . Value?
Solution: 82.4 L/kg

Exercise: Looking for the measured Vd/F of "CCCSc1nc(N[C@@H]2C[C@H]2c2ccc(F)c(F)c2)c2nnn([C@H]3[C@H](O)[C@H](O)[C@@H](O)[C@H]3F)c2n1" , can you help?
Solution: 43.4 L/kg

Exercise: Which Vd/F is listed for "CCCSc1nc(N[C@@H]2C[C@H]2c2ccc(Cl)s2)c2nnn([C@@H]3C[C@H](OCCO)[C@@H](O)[C@H]3O)c2n1" ?
Solution: 206 L/kg

Exercise: Fill in the blank: the reported Vd/F of CCCSc1nc(N[C@@H]2C[C@H]2c2ccc(F)c(F)c2)c2nnn([C@@H]3C[C@H](OCCO)[C@@H](O)[C@H]3O)c2n1 [TICAGRELOR] is ____.
Solution: 24.2 L/kg

Exercise: Data request, read-out Vd/F, for "CCCSc1nc(N[C@@H]2C[C@H]2c2ccc(F)c(F)c2)c2nnn([C@@H]3C[C@H](F)[C@@H](O)[C@H]3O)c2n1"
Solution: 27.1 L/kg

Exercise: Consider the molecule shown here: CCCSc1nc(N[C@@H]2C[C@H]2c2ccc(F)c(F)c2)c2nnn(C3[C@H](O)[C@H](O)[C@@H](O)[C@H]3O)c2n1 (stereo partly specified) What is its recorded Vd/F?
Solution: 217 L/kg
